Entry source: patent US20190374533A1

Target: rat NHE-3 (Rattus norvegicus)
Construct: expressed in transfected cells; host or cells: Opossum kidney (OK) cells (ATCC), electroporated
Sequence (P26433 29-831): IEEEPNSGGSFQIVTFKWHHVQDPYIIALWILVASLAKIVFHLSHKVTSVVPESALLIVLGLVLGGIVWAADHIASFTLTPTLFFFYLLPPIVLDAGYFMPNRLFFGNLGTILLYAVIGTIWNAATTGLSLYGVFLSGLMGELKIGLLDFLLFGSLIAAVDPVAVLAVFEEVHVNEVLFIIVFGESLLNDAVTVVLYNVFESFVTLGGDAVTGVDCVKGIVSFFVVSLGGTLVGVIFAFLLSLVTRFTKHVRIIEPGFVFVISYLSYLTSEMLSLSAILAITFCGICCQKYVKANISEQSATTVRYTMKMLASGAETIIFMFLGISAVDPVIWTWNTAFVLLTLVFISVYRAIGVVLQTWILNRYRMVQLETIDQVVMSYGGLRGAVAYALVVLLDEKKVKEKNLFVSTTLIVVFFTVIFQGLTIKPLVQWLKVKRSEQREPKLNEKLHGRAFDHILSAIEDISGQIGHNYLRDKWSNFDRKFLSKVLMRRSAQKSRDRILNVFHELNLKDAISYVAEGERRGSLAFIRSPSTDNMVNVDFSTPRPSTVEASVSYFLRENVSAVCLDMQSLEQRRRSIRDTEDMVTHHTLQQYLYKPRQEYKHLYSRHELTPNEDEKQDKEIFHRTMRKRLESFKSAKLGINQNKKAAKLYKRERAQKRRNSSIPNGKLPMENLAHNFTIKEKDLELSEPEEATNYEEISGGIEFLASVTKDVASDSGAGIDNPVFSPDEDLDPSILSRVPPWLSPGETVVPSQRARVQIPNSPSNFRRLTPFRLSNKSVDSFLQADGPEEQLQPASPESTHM
Assay: Cell-based assay of NHE-3 activity (Pharmacological Test Example 1)
endpoint: rat NHE-3 Average pIC50

These recorded examples may help you get a feel for the data.
molecule	recorded result
CN1Cc2c(Cl)cc(Cl)cc2C(c2ccc(S(=O)(=O)NCCOCCOCCNC(=O)NCCOCCOCCNS(=O)(=O)c3ccc(C4CN(C)Cc5c(Cl)cc(Cl)cc54)cc3)cc2)C1 (stereo not drawn)	<5.0
CN1Cc2c(Cl)cc(Cl)cc2C(c2ccc(S(=O)(=O)NCCOCCOCCOCCNC(=O)c3ccc(C(=O)NCCOCCOCCOCCNS(=O)(=O)c4ccc(C5CN(C)Cc6c(Cl)cc(Cl)cc65)cc4)cc3)cc2)C1 (stereo not drawn)	<5.0

Please find the next molecule below.
Query :: System rat NHE-3 (Rattus norvegicus). Read-out rat NHE-3 Average pIC50. Item CN1Cc2c(Cl)cc(Cl)cc2C(c2cccc(S(=O)(=O)NCCOCCOCCOCCNC(=O)c3ccccc3C(=O)NCCOCCOCCOCCNS(=O)(=O)c3cccc(C4CN(C)Cc5c(Cl)cc(Cl)cc54)c3)c2)C1 (stereo not drawn) . Report value.
Result :: >7
